# pEC50 values compiled below
tested on: UKE1; assay: Cell viability, UKE1; type: cell-based; settings: UKE1
Lab note: report pEC50 as minus log10 of the concentration in molar units, number only.

compound: CN1CCN(c2ccc(Nc3ncc4ccn(CC5CCCO5)c4n3)cc2OC2CCC2)CC1 (centres unmarked)
readout_number: 5.82

Query compound follows.
What pEC50 value was documented for this compound, CN1CCN(c2ccc(Nc3ncc4ccn(CC5CCCO5)c4n3)cc2OCCO)CC1 (centres unmarked) ?
6.15

----------
molecular target: ACK1 (Homo sapiens); assay: DSF = Differential Scanning Fluorimetry, thermal shift; format: binding
Sequence (Q07912 whole entry): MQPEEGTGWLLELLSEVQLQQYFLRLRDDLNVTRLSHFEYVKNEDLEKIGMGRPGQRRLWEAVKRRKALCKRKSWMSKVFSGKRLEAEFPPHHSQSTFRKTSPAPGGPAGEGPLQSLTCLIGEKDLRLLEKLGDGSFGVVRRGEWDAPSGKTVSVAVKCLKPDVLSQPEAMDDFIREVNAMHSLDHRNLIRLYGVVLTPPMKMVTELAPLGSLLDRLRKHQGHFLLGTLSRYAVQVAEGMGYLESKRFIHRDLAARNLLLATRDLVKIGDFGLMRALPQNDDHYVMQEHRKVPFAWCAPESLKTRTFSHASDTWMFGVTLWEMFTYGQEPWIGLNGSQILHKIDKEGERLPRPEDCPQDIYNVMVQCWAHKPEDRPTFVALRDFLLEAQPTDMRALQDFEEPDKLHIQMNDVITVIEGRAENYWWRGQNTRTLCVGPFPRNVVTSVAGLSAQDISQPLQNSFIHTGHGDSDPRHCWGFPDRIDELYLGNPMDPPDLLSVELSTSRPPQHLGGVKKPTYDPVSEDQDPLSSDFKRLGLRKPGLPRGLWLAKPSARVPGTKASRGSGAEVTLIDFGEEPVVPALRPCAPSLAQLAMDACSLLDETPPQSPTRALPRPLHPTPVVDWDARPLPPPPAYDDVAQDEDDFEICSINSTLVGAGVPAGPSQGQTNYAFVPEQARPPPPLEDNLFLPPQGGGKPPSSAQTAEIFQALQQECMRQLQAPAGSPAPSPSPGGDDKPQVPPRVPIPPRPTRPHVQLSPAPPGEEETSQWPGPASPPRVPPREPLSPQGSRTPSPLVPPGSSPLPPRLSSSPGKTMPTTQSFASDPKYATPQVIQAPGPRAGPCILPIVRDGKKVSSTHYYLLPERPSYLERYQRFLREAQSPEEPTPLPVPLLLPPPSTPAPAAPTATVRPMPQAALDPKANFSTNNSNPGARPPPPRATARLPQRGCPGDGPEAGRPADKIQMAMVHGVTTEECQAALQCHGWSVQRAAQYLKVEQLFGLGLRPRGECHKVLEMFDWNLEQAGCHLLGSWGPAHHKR
parameter: DSF (ΔTm (° C.)) (°C)
Please respond with the number in °C and leave the unit unwritten.

Reference set, count: 3
compound: Cc1cc(N2CCN(C)CC2)c(F)cc1Nc1ncc2ccn(-c3ccc(S(=O)(=O)NC(C)C)cc3)c2n1
DSF (ΔTm (° C.)) / °C: 7.7

compound: COc1cc(N2CCN(C)CC2)c(F)cc1Nc1ncc2ccn(-c3ccc(NS(=O)(=O)C(C)C)cc3)c2n1
DSF (ΔTm (° C.)) / °C: 9.3

compound: Cc1cn(CC2CCCO2)c2nc(Nc3ccc(-c4cnn(C)c4)c(OC(C)C)c3)ncc12 (centres unmarked)
DSF (ΔTm (° C.)) / °C: 2.1

What DSF (ΔTm (° C.)) value was documented for this compound, CN1CCN(c2cc(Cl)c(Nc3ncc4ccn(CC5CCOCC5)c4n3)cc2F)CC1 ?
6.4

What DSF (ΔTm (° C.)) value was documented for this compound, CC(C)Oc1cc(Nc2ncc3ccn(-c4cccc(NS(=O)(=O)C(C)C)c4)c3n2)ccc1N1CCN(C)CC1 ?
5.2
